PROPERTY MEASURED: melting point

# COMPOUND, PROPERTY MEASURED, VAL
data = [
    ("O=C(CCCCC(=O)Oc1ccc(C(=O)OCc2ccccc2)cc1)Oc1ccc(C(=O)OCc2ccccc2)cc1", "melting point", "93 to 93.5 °C"),
    ("COc1ccc2c(c1)c(-c1cc3c(-c4cccnc4)ccnc3[nH]1)cn2C", "melting point", "248 to 249 °C"),
    ("Cc1c(Cl)ccc(NC(=O)CN2C(=O)c3ccccc3C2=O)c1Cl", "melting point", "245 to 246 °C"),
    ("N#CCc1cc(Br)ccc1Sc1ccccc1", "melting point", "118 to 120 °C"),
    ("CC(C)(C)Nc1c(NCc2ccc(OC(F)(F)F)cc2)c(=O)c1=O", "melting point", "292 to 294 °C"),
    ("Cc1cc(C2=NN(C(N)=S)[C@H](C)Cc3cc4c(cc32)OCO4)cc(C)c1[N+](=O)[O-]", "melting point", "228 to 230 °C"),
    ("CC1(Cc2ccc3c(c2)OCCO3)CN(C(c2ccccc2)c2ccccc2)CCN1 (stereo not given)", "melting point", "144 °C"),
    ("O=C(O)C1CNc2cc(C(F)(F)F)ccc2O1 (stereo not given)", "melting point", "105 to 107 °C"),
    ("CNC(=O)Cc1c(F)cccc1F", "melting point", "163 to 164 °C"),
    ("COc1cccc(CNC(=O)c2[nH]c3ccc(Cl)cc3c2S(=O)(=O)c2ccccc2)c1", "melting point", "203 to 204 °C"),
]

====

Reported melting point values are given for each entry in this list.

# COMPOUND, melting point
records = [
    ("Cc1c(N2CCN(Cc3ccccc3)CC2)c(F)cc2c(=O)c(C(=O)O)cn(C3CC3)c12", "209 to 211 °C"),
    ("Cc1ccc2nc(-c3ccc4oc(=O)n(C)c4c3)c(C)n2c1", "247 to 249 °C"),
    ("O=C(Cn1cc[nH]c(=O)c1=O)OC(c1ccccc1)c1ccccc1", "97 to 98 °C"),
    ("COc1ccc(C(=O)Nc2ccc(F)c(F)c2)cc1NCc1cccc(O)c1", "160 to 163 °C"),
    ("COc1ccc2c(c1)C(=O)c1ccccc1C2", "94.5 to 97.5 °C"),
    ("Nc1ccc(C(=O)N2CCC(c3[nH]nc4c3C(=O)c3c(NC(=O)NN5CCOCC5)cccc3-4)CC2)cc1", "198 to 200 °C"),
    ("C[C@H](NC(=O)c1ccc([N+](=O)[O-])cc1F)C(=O)O", "136 to 138 °C"),
    ("CC(C)(C)c1ccc(C2C=C(c3ccc(C#C[Si](C)(C)C)cc3)NN2c2ccccc2)cc1 (centres undefined)", "160 to 162 °C"),
    ("c1ccc(-c2nnc3cc(-c4ccsc4)c(OCc4ncn[nH]4)nn23)cc1", "264 to 266 °C"),
]

====

PROPERTY MEASURED: melting point

# COMPOUND, VAL
measured = [
    ("CC(=O)NCC1CN(c2ccc(N3CCN(c4nnc(C#N)s4)C(F)C3)cc2)C(=O)O1 (centres undefined)", "200 to 202 °C"),
    ("CNCCCNC(=O)[C@@H]1CCCN1S(=O)(=O)c1ccc(Cl)c(COc2cccc3c(C)cc(C)nc23)c1Cl", "85 °C"),
    ("COc1cc([N+](=O)[O-])c(C)cc1Br", "91 to 92 °C"),
    ("COC(=O)Cc1ccc(-c2ccc(OCCN3CCOCC3)cc2)cn1", "135 to 137 °C"),
    ("Cc1nc(O)sc1CC(C)Cl (centres undefined)", "91 to 93 °C"),
    ("CCOCc1cc(OC)c(-c2ccc(C[C@H](NC(=O)c3c(Cl)cccc3Cl)C(=O)O)cc2)c(OC)c1", "196 to 198 °C"),
    ("COc1ccc(C#Cc2cc(OC)c(OC)cc2C=O)cc1OC", "148 to 149 °C"),
    ("CCOc1ccc([N+](=O)[O-])c(NN2CCOCC2)c1", "152 °C"),
    ("Cc1cccnc1-c1cc2cccnc2c(Cl)n1", "130 to 131 °C"),
    ("CCCN(c1c2c(nc3ccccc13)CCCC2)n1cc(C)c2ccccc21", "142 to 144 °C"),
    ("Cc1on(C(=O)N(c2ccc(Cl)cc2)C(C)C)c(=O)c1Cl", "136 to 137 °C"),
    ("Nc1nc(NCCc2ccc(Oc3nc(N)n4nc(-c5ccco5)nc4n3)cc2)nc2nc(-c3ccco3)nn12", "186 to 190 °C"),
    ("CCOC(=O)c1cccn1CCN1CCC(=C2c3ccn(C)c3CCn3ccnc32)CC1", "162 °C"),
    ("CC(SC#N)C(=O)N(CC(=O)OC(C)(C)C)C1CCCC1 (centres undefined)", "76 to 78 °C"),
    ("COc1ccc(C(=O)/C=C/c2ncn(C(c3ccccc3)(c3ccccc3)c3ccccc3)c2C)c2ccccc12", "235 to 237 °C"),
    ("CCOC(=O)c1ccc(S(=O)(=O)Oc2c(-c3ccccc3)cc(C(=O)c3ccccc3)cc2-c2ccccc2)cc1O", "75 to 85 °C"),
    ("CCCCNC(=O)Oc1ccccc1", "39 to 40 °C"),
    ("CCOC(=O)C=Cc1ccc(C(C)(C)C)c(NC(=O)CC2c3ccccc3Oc3ccccc32)c1", "180 to 181 °C"),
    ("COc1cccc2c(CCOCc3ccc(-c4ccccc4)cc3)coc12", "77 to 78 °C"),
    ("O=C(N[C@H]1CC[C@H](CCN2CCN(c3nccc4c3OCC4)CC2)CC1)c1ccc(N2CCOCC2)cc1", "242 °C"),
    ("C=CC(=O)OC(C#N)Cc1cccc(Cl)c1 (centres undefined)", "100 to 101 °C"),
    ("CS(=O)(=O)c1ccc(-c2c(-c3ccc(F)cc3)c(OCc3ccccc3)nn2Cc2ccccc2)cc1", "174 to 175 °C"),
    ("O=C1CC(Sc2ccccc2)C(O)(c2ccccc2)C(Sc2ccccc2)C1 (centres undefined)", "126 to 127 °C"),
    ("O=C(O)C1(c2ccccc2)CCN(Cc2ccccc2)CC1", "286 °C"),
    ("CCn1ncc(C(=O)c2ccc(Cl)cc2Cl)c1O", "144 to 146 °C"),
    ("CCOC(=O)c1cnn2c1c(N1CCN(C)CC1)nc1ccccc12", "234 to 236 °C"),
    ("CN1CCN(c2cccc3ccc(Nc4nc(Cc5ccccc5)cs4)cc23)CC1", "157 to 160 °C"),
    ("COc1ccc(-c2cc(C(C)(C)C)sc2-c2ccc(OC)cc2)cc1", "112 to 115 °C"),
    ("COC(=O)CCCc1cc2nc(Cl)ccc2n1S(=O)(=O)c1cccc(Cl)c1", "107 °C"),
    ("CCCCOc1c(N)c(=O)c1=O", "166 to 168 °C"),
    ("c1ccc(-c2nc(SCCCSCCCSc3nc(-c4ccccc4)c(-c4ccccc4)[nH]3)[nH]c2-c2ccccc2)cc1", "208 to 209 °C"),
    ("CCN(CC)C(=O)C1CCCN(C(=O)CN(C(=O)CNC(=O)Nc2cccc(C)c2)c2ccccc2)C1 (racemic)", "156 °C"),
    ("CCOC(=O)C1=C(C)N(C(C)=O)C(c2csc(C)n2)=NC1c1ccc(Cl)cc1 (centres undefined)", "169 to 171 °C"),
    ("CCOC(OCC)C(=O)OCc1c(-c2cnccn2)ssc1=O", "74 to 76 °C"),
    ("CCCn1c(=O)cc(S(=O)(=O)CCC)n(Cc2ccc(-c3ccccc3-c3nnn[nH]3)cc2)c1=O", "128 to 135 °C"),
    ("Cc1cnc(CCCCn2cnc(NC(N)=NCC(F)(F)F)n2)nc1O", "235 to 237 °C"),
    ("CCC(CC)c1cccc2nc(C(O)c3c(C)cc(C)cc3C)n(C)c12 (centres undefined)", "132 to 134 °C"),
    ("CC(C)c1cccc(-c2ccc(F)cc2)c1OCCO", "77 to 78 °C"),
    ("COc1cc(Oc2ccc(S(C)(=O)=O)nc2)cc2cc(C3=NCC(CC(N)=O)S3)[nH]c12 (centres undefined)", "225 to 227 °C"),
]

====

Each entry below carries its reported melting point.

# COMPOUND, melting point
records = [
    ("CC(=O)N1N=C(c2ccncc2)OC1c1ccc(Cl)c(Cl)c1 (stereo unspecified)", "101 to 104 °C"),
    ("CN(c1ccc(Cl)cc1)S(=O)(=O)c1cccc(C(=O)Nc2ccc(Cl)cc2F)c1", "119 to 120 °C"),
    ("CC(C#CC1=C(C)C(=O)C(O)CC1(C)C)=CCO (stereo unspecified)", "84 to 86 °C"),
    ("COc1cc2cc(-c3ccccc3C)sc2c(Cl)c1Cl", "156 to 157 °C"),
    ("Cc1cc(CCC[C@H](CC(=O)OC(C)(C)C)C(=O)N[C@H](C(=O)O)C(C)(C)C)ccc1-c1ccccc1", "51 to 56 °C"),
    ("Cc1cc(C)c(C(C#N)C=O)c(C)c1 (stereo unspecified)", "120 to 122 °C"),
    ("COc1ccc(CNC(=O)c2cccnc2N)cc1", "165 to 166 °C"),
    ("COc1ccc(-c2cc(C)c3nc(OC)ccc3c2)cc1", "104 to 106 °C"),
    ("C=C1COc2ccc(C(C)=O)cc2C(Cc2ccccc2)(S(=O)(=O)c2ccccc2)C1 (stereo unspecified)", "131 to 132 °C"),
    ("CCOC(=O)c1[nH]c(CC)nc1C1CC1", "154 to 155 °C"),
    ("COc1ccc(/C(=C\\C=C\\C(=O)NCCCCc2cccnc2)c2cccnc2)cc1", "108 to 110 °C"),
]
